Kindly state AUC for each of the entries shown.
system: Rattus norvegicus; assay: Area under curve in rat by po administration at 0-24 hr; assay type: ADME, organism-based; design: time < 24 hr, route oral; details: in vivo
Give your result in ng·h/mL as a bare value.

The recorded AUC for COc1cc(NC(=O)N[C@@H](CN2C3CCC2CC(Cc2ccc(Cl)cc2)C3)[C@H](C)O)cc(OC)c1OC (stereo partly drawn) is 190

Reported AUC for COc1cc(NC(=O)N[C@H](C)CN2C3CCC2CC(Cc2ccc(Cl)cc2)C3)cc(OC)c1OC (stereo partly drawn) was 280

Input C[C@H](O)[C@H](CN1C2CCC1CC(Cc1ccc(Cl)cc1)C2)NC(=O)Nc1cccc(S(C)(=O)=O)c1 (stereo partly drawn) . Output AUC: 710

* * *

Target: C-C chemokine receptor type 3 (Homo sapiens)
Sequence (P51677 whole entry): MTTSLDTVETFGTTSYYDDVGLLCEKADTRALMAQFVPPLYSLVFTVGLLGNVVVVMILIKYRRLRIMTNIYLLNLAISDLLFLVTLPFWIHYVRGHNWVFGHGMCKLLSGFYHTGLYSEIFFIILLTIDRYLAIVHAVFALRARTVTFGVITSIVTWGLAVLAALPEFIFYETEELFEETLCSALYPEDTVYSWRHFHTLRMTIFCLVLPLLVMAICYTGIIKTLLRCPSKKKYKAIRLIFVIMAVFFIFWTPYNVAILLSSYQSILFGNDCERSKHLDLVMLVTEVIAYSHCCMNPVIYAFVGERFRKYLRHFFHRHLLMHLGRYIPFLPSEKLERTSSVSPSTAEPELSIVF
Assay: Binding affinity was determined towards C-C chemokine receptor type 3 using [125I]-labeled eotaxin as radioligand
MEASURE: IC50 (nM)
Write the value in nM as a bare number.

The molecule listed as Cc1ccc(C(=O)NC(CN2CC3CCC2CC3Cc2ccc(Cl)c(Cl)c2)C(C)C)cc1 (centres undefined) shows IC50 equal to 5300

Cc1ccc(C(=O)NC(CC2CCN(Cc3ccc(C)c(C)c3)CC2)C(C)C)cc1 (centres undefined) has a reported IC50 of 7800

// field: IC50; key: C[C@H](CN1C2CCC1CC(Cc1ccc(Cl)cc1)C2)NC(=O)Nc1cccc(S(C)(=O)=O)c1 (some centres undefined) ; value = 65

Lab note: C[C@H](O)[C@H](CN1C2CCC1CC(Cc1ccc(Cl)cc1)C2)NC(=O)Nc1cccc(S(C)(=O)=O)c1 (some centres undefined) gave IC50 of 12

So for Cc1ccc(C(=O)NC(CC2CCN(Cc3ccc([N+](=O)[O-])cc3)CC2)C(C)C)cc1 (centres undefined) , the logged IC50 turned out to be 8500

The molecule listed as Cc1ccc(C(=O)NC(CN2CCC(Cc3ccc(Cl)c(Cl)c3)CC2)C(C)C)cc1 (centres undefined) shows IC50 equal to 500

# IC50 (molecule: COc1cc(NC(=O)N[C@H](C)CN2C3CCC2CC(Cc2ccc(Cl)cc2)C3)cc(OC)c1OC (some centres undefined) ) is 11

* * *

target: C-C chemokine receptor type 3 (Homo sapiens); assay: Binding affinity was determined towards C-C chemokine receptor type 3 using [125I]-labeled eotaxin as radioligand
Field: pIC50. Provide a value for each of the compounds that follow.
Here pIC50 is given on a logarithmic scale as minus log10 of the concentration in mol/L.

The compound Cc1ccc(C(=O)NC(CN2C3CCC2CC(Cc2ccc(Cl)c(Cl)c2)C3)C(C)C)cc1 (centres undefined) , tested on C-C chemokine receptor type 3 (Homo sapiens), showed pIC50 of 5.74

Here COc1cc(NC(=O)N[C@@H](CN2C3CCC2CC(Cc2ccc(Cl)cc2)C3)[C@H](C)O)cc(OC)c1OC (some centres undefined) was tested on C-C chemokine receptor type 3 (Homo sapiens), and its pIC50 came to 8.09

With C-C chemokine receptor type 3 (Homo sapiens) as the test system, COc1cc(NC(=O)NC(CC2CCN(Cc3ccc(Cl)c(Cl)c3)CC2)C(C)C)cc(OC)c1OC (centres undefined) showed pIC50 of 6.30

The compound Cc1ccc(C(=O)NC(CC2CCN(Cc3ccc(Cl)c(Cl)c3)CC2)C(C)C)cc1 (centres undefined) , when measured on C-C chemokine receptor type 3 (Homo sapiens), yielded pIC50 of 5.77

Reference for the values: ChEMBL document CHEMBL1146631
